Test system: SNB-75 CNS
experiment: NCI-60 one-dose screen, 48 h
runConditions: 10 µM unless noted
The panel holds about 83,000 compounds, 20% with a hit somewhere; the sample as a whole holds those more often. Calls of active or inactive are those of the source. Rule for the calls: active = growth percent below 10; inactive = the rest.
Give your call using only these classes: active, inactive

Worked set:
>>> assignedcategory("CCC(C)C1NC(=O)C(CC(C)C)NC(=O)C(C)NC(=O)C(C(C)C)NC(=O)C(CCCCN)NC(=O)C(CC(C)C)NC(=O)C(C(C)C)NC(=O)[C@H](C)NC(=O)C(C(C)CC)NC(=O)C(CCCN=C(N)N)NC(=O)C(CCCCN)NC(=O)C(CCCN=C(N)N)NC(=O)C(CCCCN)NC(=O)C([C@H](C)CC)NC(=O)C(CCCCN)NC1=O (stereo partly specified)")
"inactive"
>>> assignedcategory("COc1ccccc1Cn1cc2c(c1)-c1oncc1CC2")
"inactive"
>>> assignedcategory("COc1nc(OC)nc(-c2cc(C(=O)c3ccc(Br)cc3)n3cc(C)cc(C)c23)n1")
"active"
>>> assignedcategory("CC(C)OC(=O)Nn1cnc2ccccc21")
"inactive"

Prompt: Tell me the recorded outcome of this test for COc1ccc(-c2nc(SCC(C)C)nc(Nc3ccccc3)c2C#N)cc1 .
Response: inactive

Prompt: Tell me the recorded outcome of this test for Cc1c(O)c(N=Nc2ccc(C(=O)O)c(O)c2)c2ccccc2c1O .
Response: inactive

Prompt: Tell me the recorded outcome of this test for Cc1cc2c(-c3nc4ccccc4n3C)c(O)c(O)cc2c(O)c1-c1c(C)cc2c(-c3nc4ccccc4n3C)c(O)c(O)cc2c1O .
Response: inactive

Prompt: Tell me the recorded outcome of this test for Cc1ccc(NC(=O)CCl)cc1Cl .
Response: inactive

Prompt: Tell me the recorded outcome of this test for O=C(/C=C1\C(=O)N(Cc2ccc([N+](=O)[O-])cc2)c2ccccc21)c1ccc(OCCN2CCCCC2)cc1 .
Response: inactive

Prompt: Tell me the recorded outcome of this test for O=C1C(Br)=CC2C1C1C3CCC3C2(Br)C12OCCO2 (stereo unspecified) .
Response: inactive

Prompt: Tell me the recorded outcome of this test for COc1cc(CCNc2cnc3cc(N)cc(N)c3n2)cc(OC)c1 .
Response: inactive

Prompt: Tell me the recorded outcome of this test for O=C(CCl)c1ccc2c(c1)CCCC2 .
Response: inactive

Prompt: Tell me the recorded outcome of this test for N#CCc1ncc(-c2ccc(C(F)(F)F)cc2)c(NC2CCCCCC2)n1 .
Response: inactive

Prompt: Tell me the recorded outcome of this test for C=CCC(CCC(CC=C)C(=O)OCC)C(=O)OCC (stereo unspecified) .
Response: inactive

Prompt: Tell me the recorded outcome of this test for CCC(CCCN1C(=O)c2ccccc2C1=O)Nc1cc(OC)cc2cccnc12 (stereo unspecified) .
Response: inactive

Prompt: Tell me the recorded outcome of this test for COc1ccc(C(=O)CN2C(=O)NC(c3ccccc3)(c3ccccc3)C2=O)cc1 .
Response: inactive
